# TESTED TARGET: UniProtKB Q12809
# Sequence (Q12809 whole entry): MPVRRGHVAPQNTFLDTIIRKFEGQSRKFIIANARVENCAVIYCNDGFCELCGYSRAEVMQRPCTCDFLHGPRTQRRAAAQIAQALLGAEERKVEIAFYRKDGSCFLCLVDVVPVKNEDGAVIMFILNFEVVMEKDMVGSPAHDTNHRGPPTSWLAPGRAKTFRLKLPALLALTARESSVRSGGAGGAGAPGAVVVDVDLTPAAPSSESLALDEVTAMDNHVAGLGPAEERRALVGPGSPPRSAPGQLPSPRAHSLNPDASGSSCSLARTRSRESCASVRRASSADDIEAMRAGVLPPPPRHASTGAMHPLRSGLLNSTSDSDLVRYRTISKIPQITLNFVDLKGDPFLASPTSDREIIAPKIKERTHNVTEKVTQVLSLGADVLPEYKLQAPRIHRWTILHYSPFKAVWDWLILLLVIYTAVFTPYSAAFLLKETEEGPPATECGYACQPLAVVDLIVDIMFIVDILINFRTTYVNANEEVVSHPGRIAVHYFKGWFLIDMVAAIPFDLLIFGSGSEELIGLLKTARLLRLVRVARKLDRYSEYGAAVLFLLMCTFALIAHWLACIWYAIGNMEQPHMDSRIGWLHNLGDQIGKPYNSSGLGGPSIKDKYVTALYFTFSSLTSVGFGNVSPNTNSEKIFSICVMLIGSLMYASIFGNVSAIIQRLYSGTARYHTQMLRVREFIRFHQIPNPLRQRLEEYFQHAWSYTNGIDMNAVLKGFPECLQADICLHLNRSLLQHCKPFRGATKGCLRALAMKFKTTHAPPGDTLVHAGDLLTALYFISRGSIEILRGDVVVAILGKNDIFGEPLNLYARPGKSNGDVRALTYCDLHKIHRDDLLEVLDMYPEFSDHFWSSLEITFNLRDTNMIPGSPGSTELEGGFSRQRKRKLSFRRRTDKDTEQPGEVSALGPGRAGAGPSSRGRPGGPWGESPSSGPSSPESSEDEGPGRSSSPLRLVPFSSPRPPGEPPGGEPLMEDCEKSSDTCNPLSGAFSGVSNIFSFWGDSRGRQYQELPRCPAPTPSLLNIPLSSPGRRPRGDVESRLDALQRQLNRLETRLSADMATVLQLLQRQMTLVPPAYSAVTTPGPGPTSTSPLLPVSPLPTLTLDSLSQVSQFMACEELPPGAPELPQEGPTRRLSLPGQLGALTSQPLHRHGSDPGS
# EXPERIMENT DESCRIPTION: hERG channel patch-clamp assay
# REPORTED CONDITIONS: CHO cells stably expressing hERG, whole-cell patch-clamp, room temperature; read-out: hERG inhibition Assay IC50
Would you kindly list pIC50 for each of these molecules?
Numbers only, as −log10 of the molar value.

O=C(Cc1ccc(S(=O)(=O)CC2CC2)cc1)Nc1ccc([C@@](O)(C(F)F)C(F)(F)F)cc1 : 4.85

Please give the measured pIC50 for this molecule: O=C(Cc1ccc(S(=O)(=O)CC2CC2)cc1)Nc1ccc([C@](O)(C(F)F)C(F)(F)F)cc1 4.95
